Numbers sourced from patent US11691971B2.

# measured on: pseudo-kinase domain (JH2) of human Wild Type JAK2 (Homo sapiens (Human), UniProt O60674, F794H/W659A/W777A)
# Sequence (O60674 536-812 W659A/W777A/F794H): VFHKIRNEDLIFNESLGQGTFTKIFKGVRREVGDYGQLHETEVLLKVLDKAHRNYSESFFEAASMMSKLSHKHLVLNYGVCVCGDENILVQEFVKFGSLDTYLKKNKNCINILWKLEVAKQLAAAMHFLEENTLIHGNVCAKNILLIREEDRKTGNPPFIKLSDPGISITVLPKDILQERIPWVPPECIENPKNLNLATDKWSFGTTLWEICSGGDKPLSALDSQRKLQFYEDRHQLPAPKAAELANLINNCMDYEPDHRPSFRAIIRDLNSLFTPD
# assay name: JAK2 LanthaScreen JH2-WT Binding Assay
# setup conditions: JAK2 JH2-WT 0.145 nM, 50 nM tracer, 1 hour at 25° C.; read-out: JH2BIND_WT IC50
pIC50: −log10 of the molar value. Where a name gives a salt, the structure may show the parent alone.
readout type: pIC50

Go through the items and report each one's pIC50.
1. COc1cc(-c2cnn(C3CCOCC3)c2)ccc1Nc1cc(NC(=O)C2CC2)nc2cc[nH]c(=O)c12 [Example 7, Trifluoroacetic Acid Salt]
2. CCn1ccc2cccc(Nc3cc(NC(=O)C4CC4)nc4cc[nH]c(=O)c34)c21 [Example 9, Trifluoroacetic Acid Salt]
3. Cc1[nH]ncc1-c1c(Nc2cc(NC(=O)C3CC3)nc3cc[nH]c(=O)c23)cccc1C(F)(F)F [Example 19, Trifluoroacetic Acid Salt]

A:
1. 5.00 to 6.00
2. 5.00 to 6.00
3. 5.00 to 6.00
